Please go through the items and note down their IC50.
- Tested on: Plasmodium falciparum
- ASSAY EXPLANATION: Antiplasmodial activity against chloroquine-resistant Plasmodium falciparum W2
- Assay type: functional, organism-based
Numbers only, in µM.

1. COc1cc(NC(C)CCCN2C(=O)[C@H](C)NC23CCCCCC3)c2ncccc2c1 (stereo not given in full) = 2.42

Q) Consider the molecule shown here: COc1cc(NC(C)CCCN2C(=O)CNC2(C)C)c2ncccc2c1 (stereo not given) What is its recorded IC50?
A) 9.08

====

- Test system: Plasmodium falciparum
- ASSAY EXPLANATION: Antiplasmodial activity against chloroquine-resistant Plasmodium falciparum W2
- Format: functional, organism-based
Please go through the items and note down their IC50.

Reference set (2 entries):
1) COc1cc(NC(C)CCCN2C(=O)[C@H](C(C)C)NC2(C)C)c2ncccc2c1 (stereo partly drawn) = > 50 µM
2) COc1cc(NC(C)CCCN2C(=O)[C@H](C(C)C)NC23CCCC3)c2ncccc2c1 (stereo partly drawn) = > 50 µM

Q) Consider the molecule shown here: COc1cc(NC(C)CCCN2C(=O)CNC23CCCCC3)c2ncccc2c1 (stereo not drawn) What is its recorded IC50?
A) > 50 µM
